# OD listing for each entry below
# Tested on: Mus musculus
# Assay Details: Optimal dose for in vivo antitumor activity against sarcoma 180 infected mice
# Type: functional

Compound: C/C1=C\[C@@H](O[C@@H]2CCCCO2)C(=O)/C=C/C=C/c2csc(n2)[C@@H](C)N2C(=O)C[C@@]([C@@](C)(O)C(=O)SCc3oc(=O)oc3C)(CC1)[S+]2[O-] (some centres undefined)
Experimental System: Mus musculus
OD, mg/kg: 8
--
Compound: COC1(O[C@@H]2/C=C(\C)CC[C@]3([C@@](C)(O)C(=O)SCc4oc(=O)oc4C)CC(=O)N([C@H](C)c4nc(cs4)/C=C/C=C/C2=O)[S+]3[O-])CCOCC1 (some centres undefined)
Experimental System: Mus musculus
OD, mg/kg: 8
--
Compound: CCOC(=O)CSC(=O)[C@](C)(O)[C@@]12CC/C(C)=C/[C@@H](O)C(=O)/C=C/C=Cc3csc(n3)[C@@H](C)N(C(=O)C1)[S+]2[O-] (some centres undefined)
Experimental System: Mus musculus
OD, mg/kg: 16
--
Compound: CSC(=O)[C@](C)(O)[C@@]12CC/C(C)=C/[C@@H](O)C(=O)/C=C/C=Cc3csc(n3)[C@@H](C)N(C(=O)C1)[S+]2[O-] (some centres undefined)
Experimental System: Mus musculus
OD, mg/kg: 16
--
Compound: C/C1=C\[C@@H](O)C(=O)/C=C/C=C\c2csc(n2)[C@@H](C)NC(=O)C[C@@]2(CC1)[S+]([O-])SC(=O)[C@]2(C)O (some centres undefined)
Experimental System: Mus musculus
OD, mg/kg: 2
--
Compound: CC(=O)O[C@@H]1/C=C(\C)CC[C@]2([C@@](C)(O)C(=O)SCc3oc(=O)oc3C)CC(=O)N([C@H](C)c3nc(cs3)C=C/C=C/C1=O)[S+]2[O-] (some centres undefined)
Experimental System: Mus musculus
OD, mg/kg: 2
--
Compound: C/C1=C\[C@@H](O)C(=O)/C=C/C=Cc2csc(n2)[C@@H](C)N2C(=O)C[C@@]([C@@](C)(O)C(=O)SCc3oc(=O)oc3C)(CC1)[S+]2[O-] (some centres undefined)
Experimental System: Mus musculus
OD, mg/kg: 2
--
Compound: COCO[C@@H]1/C=C(\C)CC[C@]2([C@@](C)(O)C(=O)SCc3oc(=O)oc3C)CC(=O)N([C@H](C)c3nc(cs3)C=C/C=C/C1=O)[S+]2[O-] (some centres undefined)
Experimental System: Mus musculus
OD, mg/kg: 2
--
Compound: C/C1=C\[C@@H](O[C@H]2CCCCO2)C(=O)/C=C/C=C/c2csc(n2)[C@@H](C)N2C(=O)C[C@@]([C@@](C)(O)C(=O)SCc3oc(=O)oc3C)(CC1)[S+]2[O-] (some centres undefined)
Experimental System: Mus musculus
OD, mg/kg: 8

---

# Assay Details: Half-life determined by HPLC ([…])
# Type: ADME
# half-life listing for each entry below

Compound: C/C1=C\[C@@H](O[C@H]2CCCCO2)C(=O)/C=C/C=C/c2csc(n2)[C@@H](C)N2C(=O)C[C@@]([C@@](C)(O)C(=O)SCc3oc(=O)oc3C)(CC1)[S+]2[O-] (stereo partly drawn)
Unit String: h
Inequality Sign: =
half-life: 30
//
Compound: CCOC(=O)CSC(=O)[C@](C)(O)[C@@]12CC/C(C)=C/[C@@H](O)C(=O)/C=C/C=Cc3csc(n3)[C@@H](C)N(C(=O)C1)[S+]2[O-] (stereo partly drawn)
Unit String: h
Inequality Sign: >
half-life: 24
//
Compound: CSC(=O)[C@](C)(O)[C@@]12CC/C(C)=C/[C@@H](O)C(=O)/C=C/C=Cc3csc(n3)[C@@H](C)N(C(=O)C1)[S+]2[O-] (stereo partly drawn)
Unit String: h
Inequality Sign: =
half-life: 18

Hello, the source for this data is ChEMBL document CHEMBL1132171, in case you need it.
